target: hMAO-A (Homo sapiens, UniProt P21397); test: In vitro inhibition of recombinant human MAO-A, fluorometric
Sequence (P21397 whole entry): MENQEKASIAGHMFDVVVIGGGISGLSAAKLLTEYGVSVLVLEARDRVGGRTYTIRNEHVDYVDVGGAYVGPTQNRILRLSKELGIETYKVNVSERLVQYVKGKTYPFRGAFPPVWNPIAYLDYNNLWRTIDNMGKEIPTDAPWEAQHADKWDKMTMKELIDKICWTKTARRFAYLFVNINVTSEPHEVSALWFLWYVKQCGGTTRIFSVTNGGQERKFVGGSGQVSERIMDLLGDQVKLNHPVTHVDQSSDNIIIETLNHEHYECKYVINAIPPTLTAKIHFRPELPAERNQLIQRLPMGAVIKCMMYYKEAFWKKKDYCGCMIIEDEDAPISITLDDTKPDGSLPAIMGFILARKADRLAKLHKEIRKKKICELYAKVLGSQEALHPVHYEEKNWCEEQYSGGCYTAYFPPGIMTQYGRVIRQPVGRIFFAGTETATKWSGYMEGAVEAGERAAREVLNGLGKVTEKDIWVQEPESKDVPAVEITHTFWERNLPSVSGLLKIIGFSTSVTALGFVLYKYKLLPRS
Readout: IC50 (nM)
Provide only the numeric value, understood in nM.

Solved entries (count: 5):
{"Compound": "CC1(C)CC(=O)C2=C(C1)N=c1s/c(=C\\c3ccc(OCc4ccccc4)cc3)c(=O)n1C2c1c[nH]c2ccccc12 (stereo not drawn)", "IC50 / nM": 630}
{"Compound": "O=C1CC(c2ccccc2)CC2=C1C(c1c[nH]c3ccccc13)n1c(s/c(=C\\c3c[nH]c4ccccc34)c1=O)=N2 (stereo not drawn)", "IC50 / nM": 9360}
{"Compound": "CC1(C)CC(=O)C2=C(C1)N=c1s/c(=C\\c3ccc(OCCNCCc4c[nH]c5ccccc45)cc3)c(=O)n1C2c1c[nH]c2ccccc12 (stereo not drawn)", "IC50 / nM": 1930}
{"Compound": "O=C1CCCC2=C1C(c1c[nH]c3ccccc13)n1c(s/c(=C\\c3ccc(OCc4ccccc4)cc3)c1=O)=N2 (stereo not drawn)", "IC50 / nM": 480}
{"Compound": "CC1(C)CC(=O)C2=C(C1)N=c1s/c(=C\\c3c[nH]c4ccccc34)c(=O)n1C2c1c[nH]c2ccccc12 (stereo not drawn)", "IC50 / nM": 570}

Request: Give the measured IC50 of O=C1CCCC2=C1C(c1c[nH]c3ccccc13)n1c(s/c(=C\c3ccc(OCCNCCc4c[nH]c5ccccc45)cc3)c1=O)=N2 (stereo not drawn) .
Result: 1500

* * *

// values below are reported viability at 10 µM
assay: Neurotoxicity MTT assay on neuroblastoma SH-SY5Y cells; type: cell-based; settings: human
Provide only the numeric value, understood in %.

{"Compound": "CC1(C)CC(=O)C2=C(C1)N=c1s/c(=C\\c3ccc(OCCNCCc4c[nH]c5ccccc45)cc3)c(=O)n1C2c1c[nH]c2ccccc12 (centres unmarked)", "Units symbol": "%", "Measurement": 95.2}

From here, focus on the item given below.
Request: Give the measured viability at 10 µM of COc1ccc(C2CC(=O)C3=C(C2)N=c2s/c(=C\c4ccc(OCCNCCc5c[nH]c6ccccc56)cc4)c(=O)n2C3c2c[nH]c3ccccc23)cc1 (centres unmarked) .
Result: 92.1

* * *

Molecular target: hMAO-B (Homo sapiens, UniProt P27338)
Sequence (P27338 1-520): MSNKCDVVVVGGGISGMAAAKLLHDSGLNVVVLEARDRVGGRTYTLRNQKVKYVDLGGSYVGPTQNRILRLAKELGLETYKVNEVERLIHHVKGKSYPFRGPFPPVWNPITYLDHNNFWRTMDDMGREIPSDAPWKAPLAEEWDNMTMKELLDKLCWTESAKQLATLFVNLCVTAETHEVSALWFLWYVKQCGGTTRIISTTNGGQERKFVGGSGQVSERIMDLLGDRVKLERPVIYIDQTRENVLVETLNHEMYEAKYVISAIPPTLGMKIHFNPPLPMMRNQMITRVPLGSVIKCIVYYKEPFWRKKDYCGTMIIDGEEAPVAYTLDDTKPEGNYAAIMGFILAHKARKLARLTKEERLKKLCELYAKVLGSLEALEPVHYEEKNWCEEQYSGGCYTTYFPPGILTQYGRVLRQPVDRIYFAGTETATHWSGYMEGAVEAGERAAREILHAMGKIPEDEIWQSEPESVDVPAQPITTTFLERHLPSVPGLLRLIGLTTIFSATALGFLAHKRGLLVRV
Assay: In vitro inhibition of recombinant human MAO-B, fluorometric
// values below are reported IC50
Provide only the numeric value, understood in µM.

{"Compound": "O=C1CCCC2=C1C(c1c[nH]c3ccccc13)n1c(s/c(=C\\c3ccc(OCc4ccccc4)cc3)c1=O)=N2 (stereo not drawn)", "IC50 [µM]": 0.37}
{"Compound": "CC1(C)CC(=O)C2=C(C1)N=c1s/c(=C\\c3c[nH]c4ccccc34)c(=O)n1C2c1c[nH]c2ccccc12 (stereo not drawn)", "IC50 [µM]": 0.24}
{"Compound": "O=C1CC(c2ccccc2)CC2=C1C(c1c[nH]c3ccccc13)n1c(s/c(=C\\c3ccc(OCc4ccccc4)cc3)c1=O)=N2 (stereo not drawn)", "IC50 [µM]": 0.81}
{"Compound": "O=C1CCCC2=C1C(c1c[nH]c3ccccc13)n1c(s/c(=C\\c3ccc(OCCNCCc4c[nH]c5ccccc45)cc3)c1=O)=N2 (stereo not drawn)", "IC50 [µM]": 0.28}
{"Compound": "O=C1CC(c2ccccc2)CC2=C1C(c1c[nH]c3ccccc13)n1c(s/c(=C\\c3ccc(OCCNCCc4c[nH]c5ccccc45)cc3)c1=O)=N2 (stereo not drawn)", "IC50 [µM]": 0.1}

From here, focus on the item given below.
Request: Give the measured IC50 of COc1ccc(C2CC(=O)C3=C(C2)N=c2s/c(=C\c4ccc(OCCNCCc5c[nH]c6ccccc56)cc4)c(=O)n2C3c2c[nH]c3ccccc23)cc1 (stereo not drawn) .
Result: 0.14
